tested_on: T1, his-tagged murine TIGIT (Acro Biosystems #TIT-M52E6) (murine, UniProt P86176 29-148, limits assumed)
T1 construct: Bought protein; also called mouse his-tagged TIGIT; not shown: his tag
T1 sequence (looked up): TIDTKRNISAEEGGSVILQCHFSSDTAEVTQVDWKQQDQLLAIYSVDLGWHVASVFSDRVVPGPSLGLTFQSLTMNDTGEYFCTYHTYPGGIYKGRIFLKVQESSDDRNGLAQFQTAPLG
procedure_details: ELISA, coated His-TIGIT, 1 ug/ml
Task for the reader: assign each of the following binders its reported Elisa OD450.
Numbers only, in OD450.

>  <binder>
43645p1.C9 (scFv, V domains shown) VH: EVQLLESGGGLVQPGGSLRLSCAASGFTFSDFWMSWVRQAPGKGLEWVSSIINIQTYDYATYYADSVKGRFTISRDNSKNTLYLQMNSLRAEDTAIYYCAKDVAPGLPGGMDVWGQGTTVTVSS VL: QSVLTQPPSASGTPGQRVTISCSGSNSNIRNNFVSWYQHLPGTAPKLLIYGNSQRPSGVPDRFSGSKSGTSASLAISGLQSEDEADYYCTSWDFSVSGWVFGGGTKLTVL

>  <units_of_measure>
OD450

>  <Elisa OD450>
0.065

$$$$
>  <binder>
43586p2.D06 (scFv, V domains shown) VH: EVQLLESGGGLVQPGGSLRLSCAASGFTFSSYWMNWVRQAPGKGLEWVSGIYSGGTTYYADSVKGRFTISRDNSKNTLYLQMNSLRAEDTAVYYCTRENWKENNAMDVWGQGTTVTVSS VL: QSVLTQPPSASGTPGQRVTISCSGVTSNIASYHVYWYQQLPGTAPKLLIYLNSQRPSGVPDRFSASKSGTSASLAISGLQSEDEADYYCATWDGSLNGWVFGGGTKLTVL

>  <units_of_measure>
OD450

>  <Elisa OD450>
1.36

$$$$
>  <binder>
43645p1.H10 (scFv, V domains shown) VH: EVQLLESGGGLVQAGGSLRLSCAASGFTFDDYVMTWVRQAPGKGLEWVSLINWSGDRTYYADSVKGRFTISRDNSKNTLYLQMNSLRAEDTAVYYCVKHNLNYYYGMDVWGQGTTVTVSS VL: QSVLTQPPSVSGTPGQRVTISCSGTISNVGNKYVSWYQQVPGTAPKLLIDYNQRPSGVPDRFSGSQSGTSASLTISGLQSEDEADYYCATWDDSLKGWVFGGGTKLTVL

>  <units_of_measure>
OD450

>  <Elisa OD450>
1.7

$$$$
>  <binder>
43352p1.D11 (scFv, V domains shown) VH: DVQLVESGGGVVRPGESLRLSCAASGFTFSSHAMSWVRQAPGEGLEWVSLISGNGVSAYYADSVKGRFTISRDNSKNTLYLQMNSLSAEDTAIYYCARGTYLISFFDYWGLGTLVTVSS VL: QSVLTQPPSASGTPGQRVTISCSGISAKIGNNYVSWYQQLPGTAPKLLIYFNNQRPSGVPDRFSGSKSGTSASLAISGLQSEDEADYYCASWDDSLNAWLFGGGTKLTVL

>  <units_of_measure>
OD450

>  <Elisa OD450>
0.046

$$$$

Here are 6 binders. What values of Elisa OD450 were reported for them?
1. 43586p2.D11 (scFv, V domains shown) VH: EVQLLESGGGLVQPGGSLRLSCAASGFTFDDYVMSWVRQAPGKGLEWVSLINWSGGTTYYADSVKGRFTISRDNSKNTLYLQMNSLRAEDTAVYYCAKHWIVYQYGMDVWGQGTTVTVSS VL: QSVLTQPSSASGTPGQRVAISCSGTISNIETKYVSWYKYVSWYQQLPGTAPKLLIYNNVQRPSGVPDRFSGSQSGTSASLAISGLQSEDEAHYYCASWEGGLNSWVFGGGTKLTVL
2. 43586p2.A03 (scFv, V domains shown) VH: EVQLLESGGGLVQPGGSLRLSCAASGFTFTSYAMSWVRQAPGKGLEWVAGISYIGRNEYYADSVKGRLTISRDNSKNTLYLQMNNLRAEDTAIYYCAKHLTGGTTDYYYYGMDVWGQGTTVTVSS VL: QSVLTQPPSASGTPGQRVTISCSGSTSNIGTSRYVHWYQQLPGTAPKLLIYFDSQRPSGVPDRFSASKSGTSASLAISGLQSEDEADYYCATWDDSLSAWVFGGGTKLTVL
3. 43645p1.B2 (scFv, V domains shown) VH: EVQLLESGGGLVQPGGSLRLSCATSGFTFSSYWMSWVRQAPGKGLEWVSGIHISDSTYYADSVKGRFTISRDNSKNTLYLQMNSLRAEDTAVYYCAKGHTVLQYGMDVWGQGTTVTVSS VL: QSGLTQPPSASGTPGQRVTISCSGDISNTRNNYVSWYQQLPGTAPKLLIYGNHQRPSGVPDRFSGSKSATSASLAISGLQSEDEADYHCGTWDNTLNAWVFGGGTKLTVL
4. 43586p1.2.B8 (scFv, V domains shown) VH: EVQLLESGGGLVQPGGSLRLSCAASGFTFTSYLMSWVRQAPGKGLEWVSTITWDGDRTYYADSVKGRFTISRDNSKNTLYLQMNSLRVGDTAVYYCAKHWTVFQYGMDVWGQGTTVTVSS VL: QSVLTQPASASGTPGQRVTITCSGTISNIETKYVSWYQQLPGTAPKLLIYGNHQRPSGVPDRFSGSKSGTSASLAISGLQSEDEADYYCASWENDLKSWVFGGGTKLTVL
5. 43586p1.2.C5 (scFv, V domains shown) VH: EVQLLESGGGLVQPGGSLRLSCAASGFTVSDHYMSWVRQAPGKGLEWVSTTSSTSWKNYTYYADSVKGRFSISRDNSENTLYLQMNGLRAEDTAVYYCAKGSYGMDVWGQGTTVTVSS VL: QSVLTQPPSASGTPGQRVTISCSGSNFNIGTKYLYWYQQLPGTAPKLLIYLDSQRPSGVPDRFSTSKPGTSASLAISGLQSEDEADYYCALWDDHLHGWVFGGGTKLTVL
6. 43586p2.G10 (scFv, V domains shown) VH: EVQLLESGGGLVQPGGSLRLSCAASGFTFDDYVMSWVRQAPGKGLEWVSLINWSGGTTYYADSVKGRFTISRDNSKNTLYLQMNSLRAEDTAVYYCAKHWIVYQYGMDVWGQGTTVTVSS VL: QSVLTQPSSASGTPGQRVTISCSGTISNIETKYVSWYKYVSWYQQLPGTAPKLLIYNNVQRPSGVPDRFSGSQSGTSASLAISGLQSEDEAHYYCASWEGGLNSWVFGGGTKLTVL

1.61
0.046
1.85
1.66
2.03
2.23
